molecular target: RSV-F of RSV subtype A strain A2 (1540) (respiratory syncytial virus subtype A, …, UniProt P03420 26-574); test: cell-based or functional assay
measure: RSV-A2 (1540) Neutral. IC50 [pM]

binder="Control I (palivizumab sequence) (antibody, V domains shown, also called Control 1; SYNAGIS) VH: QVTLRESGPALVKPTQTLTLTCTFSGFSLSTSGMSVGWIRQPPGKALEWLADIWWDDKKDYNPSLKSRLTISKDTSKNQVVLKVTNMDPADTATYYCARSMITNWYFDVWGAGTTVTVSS VL: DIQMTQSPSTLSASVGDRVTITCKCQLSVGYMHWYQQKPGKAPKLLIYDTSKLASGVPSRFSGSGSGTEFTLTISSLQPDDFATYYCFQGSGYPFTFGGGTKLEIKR" observedresult="360 pM"
